Target: BRD4 (Homo sapiens)
pKd: −log10 of the molar value.
measurement_type: pKd

Examples from the recorded data:
{"columns": ["compound", "pKd"],
 "data": [
  ["Cc1oc(-c2cc(F)cc(/N=C(/N)N3CCC(C)(C)CC3)c2)cc1C(=O)N1CCCC(OCCOCCOCCNC(=O)C[C@@H]2N=C(c3ccc(Cl)cc3)c3c(sc(C)c3C)-n3c(C)nnc32)C1 (some centres unmarked)", 7.80],
  ["Cc1oc(-c2cc(F)cc(/N=C(/N)N3CCC(C)(C)CC3)c2)cc1C(=O)N1CCC(OCCOCCOCCOCCOCCNC(=O)C[C@@H]2N=C(c3ccc(Cl)cc3)c3c(sc(C)c3C)-n3c(C)nnc32)CC1", 8.22],
  ["Cc1oc(-c2cc(F)cc(/N=C(/N)N3CCC(C)(C)CC3)c2)cc1C(=O)N1CCCC(CN2CCN(C(=O)C[C@@H]3N=C(c4ccc(Cl)cc4)c4c(sc(C)c4C)-n4c(C)nnc43)CC2)C1 (some centres unmarked)", 7.70]
]}

P. Cc1oc(-c2cc(F)cc(/N=C(/N)N3CCC(C)(C)CC3)c2)cc1C(=O)N1CCC(CN2CCN(C(=O)C[C@@H]3N=C(c4ccc(Cl)cc4)c4c(sc(C)c4C)-n4c(C)nnc43)CC2)CC1
Q. Cc1oc(-c2cc(F)cc(/N=C(/N)N3CCC(C)(C)CC3)c2)cc1C(=O)N1CCCC(OCCOCCOCCOCCOCCNC(=O)C[C@@H]2N=C(c3ccc(Cl)cc3)c3c(sc(C)c3C)-n3c(C)nnc32)C1 (some centres unmarked)
Prompt: Which numeric pKd is bigger, that of P or that of Q ? Indicate your choice by writing its label.
Completion: Q

* * *

Target: HiBiT-GID4(FL) (Homo sapiens, UniProt Q8IVV7)
Construct: full length, N-terminal HiBiT tag, stably expressed in HEK293T (piggyBac)
Sequence (Q8IVV7 whole entry): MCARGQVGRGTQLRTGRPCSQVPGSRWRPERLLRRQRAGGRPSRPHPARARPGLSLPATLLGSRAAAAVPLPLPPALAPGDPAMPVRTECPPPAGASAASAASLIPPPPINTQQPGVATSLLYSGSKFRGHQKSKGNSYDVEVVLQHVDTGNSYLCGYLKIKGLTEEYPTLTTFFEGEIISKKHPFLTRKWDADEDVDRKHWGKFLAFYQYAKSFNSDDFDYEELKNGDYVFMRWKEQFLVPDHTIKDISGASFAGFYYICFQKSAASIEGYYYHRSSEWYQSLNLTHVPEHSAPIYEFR
Design: species or system HEK293T; HiBiT cellular thermal shift of full-length GID4, luminescence, delta Tagg
Conditions: binder
measurement_type: GID4 intracellular target engagement ΔTagg [ºC] (°C)

{"columns": ["compound", "target_or_system", "display_unit", "result_value"],
 "data": [
  ["Cc1oc(-c2cc(F)cc(/N=C(/N)N3CCC(C)(C)CC3)c2)cc1C(=O)N1CCC(CN2CCN(C(=O)C[C@@H]3N=C(c4ccc(Cl)cc4)c4c(sc(C)c4C)-n4c(C)nnc43)CC2)CC1 [compound 24, 24]", "HiBiT-GID4(FL) (Homo sapiens, UniProt Q8IVV7)", "°C", -1.7],
  ["Cc1oc(-c2cc(F)cc(/N=C(/N)N3CCC(C)(C)CC3)c2)cc1C(=O)N1CCCC(OCCOCCOCCNC(=O)C[C@@H]2N=C(c3ccc(Cl)cc3)c3c(sc(C)c3C)-n3c(C)nnc32)C1 (stereo partly drawn) [compound 28, 28]", "HiBiT-GID4(FL) (Homo sapiens, UniProt Q8IVV7)", "°C", -2.6],
  ["Cc1oc(-c2cc(F)cc(/N=C(/N)N3CCC(C)(C)CC3)c2)cc1C(=O)N1CCC(CN2CCN(C(=O)C[C@H]3N=C(c4ccc(Cl)cc4)c4c(sc(C)c4C)-n4c(C)nnc43)CC2)CC1 [compound 26]", "HiBiT-GID4(FL) (Homo sapiens, UniProt Q8IVV7)", "°C", -2]
]}

I. Cc1oc(-c2cc(F)cc(/N=C(/N)N3CCC(C)(C)CC3)c2)cc1C(=O)N1CCCC(CN2CCN(C(=O)C[C@@H]3N=C(c4ccc(Cl)cc4)c4c(sc(C)c4C)-n4c(C)nnc43)CC2)C1 (stereo partly drawn) [compound 25, 25]
II. Cc1oc(-c2cc(F)cc(/N=C(/N)N3CCC(C)(C)CC3)c2)cc1C(=O)N1CCC(OCCOCCOCCOCCOCCNC(=O)C[C@@H]2N=C(c3ccc(Cl)cc3)c3c(sc(C)c3C)-n3c(C)nnc32)CC1 [compound 29, 29]
III. Cc1oc(-c2cc(F)cc(/N=C(/N)N3CCC(C)(C)CC3)c2)cc1C(=O)N1CCCC(OCCOCCOCCOCCOCCNC(=O)C[C@@H]2N=C(c3ccc(Cl)cc3)c3c(sc(C)c3C)-n3c(C)nnc32)C1 (stereo partly drawn) [compound 30, 30]
Prompt: Output the entries ranked by GID4 intracellular target engagement ΔTagg [ºC] from maximum down to minimum. I'd appreciate it if you listed the labels in the requested order.
Completion: II, III, I
(II: 0.1 °C, III: -0.3 °C, I: -1.4 °C)
